Data origin: PubChem BioAssay (NCI)

In this section, each of the molecules is paired with its reported growth.
tested on: SN12C renal; assay: NCI-60 one-dose screen, 48 h (100 = growth as untreated, 0 = no growth, -100 = all killed); conditions: 10 µM
Compounds without any hit were thinned out: in the full panel of roughly 83,000, 20% have a hit.

| MOLECULE | growth [%] |
| --- | --- |
| COc1cc2cc(C(=O)N3C[C@@H](CCl)c4c3cc(OC(=O)N3CCN(C(=O)CCC(=O)N5CCN(C)CC5)[C@@H]5CSSC[C@@H]53)c3ccccc43)[nH]c2c(OC)c1OC | -37.7 |
| C[C@H]1[C@@H](CC(=O)N[C@@H](Cc2coc3ccccc23)B(O)O)O[C@@H]2OC3(C)CC[C@H]4[C@H](C)CC[C@@H]1[C@@]24OO3 | -78.6 |
| CC(=C\C(=O)Oc1ccc2c3c1OC1C(O)CCC4(O)C(C2)N(CC2CCC2)CCC314)/C=C1\CCCc2ccccc21 (stereo not drawn) | 60.9 |
| O=C(/C=C/c1ccc(F)cc1)c1nc2ccccc2n1Cc1ccc(Br)cc1 | -40.4 |
| O=C(NC([Se])=NC1CCCCC1)c1ccccc1 | 39.6 |
| O=C(/C=C/c1ccco1)c1nc2ccccc2n1Cc1ccc(F)cc1 | 79.2 |
| COC(=O)C[C@](O)(CCC(C)C)C(=O)O[C@@H]1C(OC)=C[C@]23CCCN2CCc2cc4c(cc2[C@H]13)OCO4 | -26.7 |
| O=C(/C=C/c1ccccc1)c1nc2ccccc2n1Cc1ccc(Br)cc1 | -58.7 |
